Test system: rodent lifetime carcinogenesis bioassay, tumor incidence TD50
Assay: carcinogenic potency in animals, long-term in vivo studies, CPDB compilation (AID 1745844)
Conditions: mouse; strain Swiss; females; by gavage; site: lung; lesion: carcinoma; dosed 83 weeks; study length 83 weeks
readout: TD50

Query block: Need TD50, item NNC(=O)c1ccncc1
Result block: 53.1 mg/kg/day

###

Test system: rodent lifetime carcinogenesis bioassay, tumor incidence TD50
Assay: carcinogenic potency in animals, long-term in vivo studies, CPDB compilation (AID 1745844)
Details: rat; strain Fischer 344; females; in drinking water; site: nasal cavity; lesion: olfactory carcinoma; dosed 42 weeks; study length 55 weeks
readout: TD50

Query block: Need TD50, item CC(O)CN(CC(C)O)N=O (stereo unspecified)
Result block: 3.04 mg/kg/day

###

System: rodent lifetime carcinogenesis bioassay, tumor incidence TD50
Assay: carcinogenic potency in animals, long-term in vivo studies, CPDB compilation (AID 1745844)
Conditions: rat; strain Fischer 344; males; in feed; site: liver; lesion: hepatocellular carcinoma + mixed hepato/cholangio carcinoma + neoplastic nodule; dosed 104 weeks; study length 105 weeks
readout: TD50

Query block: Need TD50, item COc1ccc(C)cc1N
Result block: 406 mg/kg/day

###

Tested on: rodent lifetime carcinogenesis bioassay, tumor incidence TD50
Test: carcinogenic potency in animals, long-term in vivo studies, CPDB compilation (AID 1745844)
Settings: hamster; strain Syrian Golden; females; by gavage; site: colon; lesion: several types; types named in the paper; dosed 61 weeks; study length 106 weeks
readout: TD50 (mg/kg/day)
Numbers only, in mg/kg/day.

Query block: Need TD50, item CN(C)CCN(C)N=O
Result block: 21

###

System: rodent lifetime carcinogenesis bioassay, tumor incidence TD50
Experiment: carcinogenic potency in animals, long-term in vivo studies, CPDB compilation (AID 1745844)
Conditions: rat; strain F344/DuCrj; females; in feed; site: stomach, glandular; lesion: sarcoma; dosed 104 weeks; study length 104 weeks
readout: TD50 (mg/kg/day)
Numbers only, in mg/kg/day.

Query block: Need TD50, item Cc1ccc(O)c(O)c1
Result block: 6500

###

Tested on: rodent lifetime carcinogenesis bioassay, tumor incidence TD50
Assay: carcinogenic potency in animals, long-term in vivo studies, CPDB compilation (AID 1745844)
Details: mouse; strain BALB/cLacDp; males; in feed; site: lung; lesion: several types; types named in the paper; dosed 60 weeks; study length 132 weeks
Calls of active or inactive are those of the source. No rule for the calls is given here.
readout: TD50

Query block: Need TD50, item Nc1ccc(N=Nc2ccc(N)cc2)cc1
Result block: 213 mg/kg/day (inactive)

###

Tested on: rodent lifetime carcinogenesis bioassay, tumor incidence TD50
Assay: carcinogenic potency in animals, long-term in vivo studies, CPDB compilation (AID 1745844)
Settings: mouse; strain B6C3F1; males; inhaled; site: any site (literature study); lesion: several types; types named in the paper; dosed 40 weeks; study length 104 weeks
readout: TD50 (mg/kg/day)
Answers are plain numbers, in mg/kg/day.

Query block: # query: TD50 | item C=CC=C | system: rodent lifetime carcinogenesis bioassay, tumor incidence TD50
Result block: 10.8

###

System: rodent lifetime carcinogenesis bioassay, tumor incidence TD50
Experiment: carcinogenic potency in animals, long-term in vivo studies, CPDB compilation (AID 1745844)
Conditions: rat; strain ACI; males; in feed; site: cecum; lesion: adenocarcinoma; dosed 121 weeks; study length 121 weeks
Active and inactive are the calls of the source. How the calls were made is not given here.
readout: TD50

Query block: Need TD50, item O=c1c(O)c(-c2ccc(O)c(O)c2)oc2cc(O)cc(O)c12
Result block: 35200 mg/kg/day (inactive)

###

System: rodent lifetime carcinogenesis bioassay, tumor incidence TD50
Experiment: carcinogenic potency in animals, long-term in vivo studies, CPDB compilation (AID 1745844)
Conditions: rat; strain F344/DuCrj; males; in feed; site: Zymbal's gland; lesion: squamous-cell papilloma; dosed 56 weeks; study length 56 weeks
readout: TD50 (mg/kg/day)
Numbers only, in mg/kg/day.

Query block: Need TD50, item Cc1cnc2ccc3c(nc(N)n3C)c2n1
Result block: 29.1

###

Tested on: rodent lifetime carcinogenesis bioassay, tumor incidence TD50
Test: carcinogenic potency in animals, long-term in vivo studies, CPDB compilation (AID 1745844)
Conditions: rat; strain Hebrew University; males; in drinking water; site: any site (literature study); lesion: several types; types named in the paper; dosed 113 weeks; study length 113 weeks
readout: TD50 (mg/kg/day)
Give bare numbers, in mg/kg/day.

Query block: Need TD50, item NC(N)=S
Result block: 27.5

###

Tested on: rodent lifetime carcinogenesis bioassay, tumor incidence TD50
Assay: carcinogenic potency in animals, long-term in vivo studies, CPDB compilation (AID 1745844)
Settings: rat; strain F344/DuCrj; males; in drinking water; site: all sites; lesion: several types; types named in the paper; dosed 50 weeks; study length 50 weeks
readout: TD50

Query block: Need TD50, item CCCCN(N=O)C(N)=O
Result block: 10.2 mg/kg/day

###

Test system: rodent lifetime carcinogenesis bioassay, tumor incidence TD50
Assay: carcinogenic potency in animals, long-term in vivo studies, CPDB compilation (AID 1745844)
Conditions: mouse; strain B6C3F1; males; in feed; site: duodenum; lesion: adenocarcinoma; dosed 104 weeks; study length 104 weeks
readout: TD50

Query block: Need TD50, item O=C1c2ccccc2C(=O)N1SC(Cl)(Cl)Cl
Result block: 981 mg/kg/day

###

System: rodent lifetime carcinogenesis bioassay, tumor incidence TD50
Experiment: carcinogenic potency in animals, long-term in vivo studies, CPDB compilation (AID 1745844)
Conditions: mouse; strain CF-1; females; in feed; site: liver; lesion: hepatoma; dosed 123 weeks; study length 123 weeks
The source made the active and inactive calls. The rule behind the calls is not given here.
readout: TD50

Query block: Need TD50, item Clc1ccc(C(c2ccc(Cl)cc2)C(Cl)Cl)cc1
Result block: 4830 mg/kg/day (inactive)

###

Tested on: rodent lifetime carcinogenesis bioassay, tumor incidence TD50
Assay: carcinogenic potency in animals, long-term in vivo studies, CPDB compilation (AID 1745844)
Conditions: mouse; strain B6C3F1; females; in feed; site: liver; lesion: hepatocellular adenoma; dosed 80 weeks; study length 90 weeks
readout: TD50

Query block: Need TD50, item Cc1c([N+](=O)[O-])c(C)c([N+](=O)[O-])c(C(C)(C)C)c1[N+](=O)[O-]
Result block: 234 mg/kg/day

###

Test system: rodent lifetime carcinogenesis bioassay, tumor incidence TD50
Experiment: carcinogenic potency in animals, long-term in vivo studies, CPDB compilation (AID 1745844)
Settings: rat; strain Sherman; both sexes; in drinking water; site: nasal turbinate; lesion: squamous-cell carcinoma; dosed 104 weeks; study length 104 weeks
readout: TD50

Query block: Need TD50, item C1COCCO1
Result block: 15900 mg/kg/day

###

Test system: rodent lifetime carcinogenesis bioassay, tumor incidence TD50
Test: carcinogenic potency in animals, long-term in vivo studies, CPDB compilation (AID 1745844)
Conditions: rat; strain Fischer 344; females; in feed; site: any site (literature study); lesion: several types; types named in the paper; dosed 103 weeks; study length 106 weeks
readout: TD50 (mg/kg/day)
Give bare numbers, in mg/kg/day.

Query block: Need TD50, item Nc1cccc2c(N)cccc12
Result block: 55.8

###

Test system: rodent lifetime carcinogenesis bioassay, tumor incidence TD50
Assay: carcinogenic potency in animals, long-term in vivo studies, CPDB compilation (AID 1745844)
Settings: hamster; strain Syrian Golden; females; in drinking water; site: cecum; lesion: several types; types named in the paper; dosed 86 weeks; study length 86 weeks
readout: TD50

Query block: Need TD50, item CNN
Result block: 25.8 mg/kg/day

###

Test system: rodent lifetime carcinogenesis bioassay, tumor incidence TD50
Experiment: carcinogenic potency in animals, long-term in vivo studies, CPDB compilation (AID 1745844)
Settings: rat; strain Fischer 344; males; by gavage; site: testis; lesion: interstitial-cell adenoma, bilateral + interstitial-cell adenoma; dosed 102 weeks; study length 102 weeks
Active and inactive are the calls of the source. No rule for the calls is given here.
readout: TD50

Query block: Need TD50, item CC(CN1c2ccccc2Sc2ccccc21)N(C)C (stereo unspecified)
Result block: 10.3 mg/kg/day (inactive)

###

Test system: rodent lifetime carcinogenesis bioassay, tumor incidence TD50
Assay: carcinogenic potency in animals, long-term in vivo studies, CPDB compilation (AID 1745844)
Details: rat; strain Fischer 344; males; inhaled; site: nasal cavity; lesion: squamous-cell carcinoma; dosed 52 weeks; study length 130 weeks
readout: TD50

Query block: Need TD50, item NN
Result block: 6.12 mg/kg/day

###

Test system: rodent lifetime carcinogenesis bioassay, tumor incidence TD50
Test: carcinogenic potency in animals, long-term in vivo studies, CPDB compilation (AID 1745844)
Settings: rat; strain Fischer 344; males; in drinking water; site: liver; lesion: several types; types named in the paper; dosed 75 weeks; study length 125 weeks
readout: TD50

Query block: Need TD50, item O=NN(CCO)CCO
Result block: 2.84 mg/kg/day

###

Test system: rodent lifetime carcinogenesis bioassay, tumor incidence TD50
Assay: carcinogenic potency in animals, long-term in vivo studies, CPDB compilation (AID 1745844)
Conditions: rat; strain Osborne-Mendel; males; in feed; site: any site (literature study); lesion: several types; types named in the paper; dosed 80 weeks; study length 108 weeks
readout: TD50 (mg/kg/day)
Give bare numbers, in mg/kg/day.

Query block: Need TD50, item C=C1C(CCl)(CCl)C2(Cl)C(Cl)C(Cl)C1(Cl)C2(Cl)Cl (stereo unspecified)
Result block: 1020
